Assay target: T1, Duck egg lysozyme (DEL), D65N + N103D double mutant of the DEL-II isoform (Anas platyrhynchos, DEL-II double mutant, strain)
T1 construct: duck egg lysozyme, DEL-II isoform, D65N + N103D double mutant; differs from HEL3X at 25 amino acids; source: Pichia pastoris, secreted, purified from culture supernatant (ion exchange)
T1 chain: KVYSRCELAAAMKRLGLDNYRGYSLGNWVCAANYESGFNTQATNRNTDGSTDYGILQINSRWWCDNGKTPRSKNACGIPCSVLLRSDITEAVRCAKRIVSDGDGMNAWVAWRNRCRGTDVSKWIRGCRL
Test description: BLI; BLItz (ForteBio); biotinylated Hy10 Fab variant immobilised on streptavidin biosensors (rehydrated in PBS with 0.1% wt/vol BSA); soluble monomeric lysozyme antigen as analyte at a range of concentrations; global fit, 1:1 Fab-lysozyme interaction
Condition details: both partners purified
pKd: −log10 of the molar value.
Classification field: enter 1 (yes) for pKd values not below 9, 0 (no) for values below it.

Lookup: Could you please find out whether Hy10 Fab I29F/S52T/Y53F (Fab, V domains shown, as the heavy chain of Dm5 with the stated changes; as the light chain of Dm5; source: Expi293, transient (pCEP4), purified (Talon resin, gel filtration)) VH: DVQLQESGPSLVKPSQTLSLTCSVTGDSFTSDYWSWIRKFPGNRLEYMGYVTFSGSTYYNPSLKSRISITRDTSKNQYYLDLNSVTTEDTATYYCANWDGDYWGQGTLVTVSA VL: DIVLTQSPATLSVTPGNSVSLSCRASQSIGNNLHWYQQKSHESPRLLIKYASQSISGIPSRFSGSGSGTDFTLSINSVETEDFGMYFCQQSNSWPYTFGGGTKLEIK has pKd that meets 9 or exceeds it?
Found: 1 (yes)

Lookup: Could you please find out whether Hy10 Fab S52T/Y53F/Y58F (Fab, V domains shown, as the heavy chain of Dm5 with the stated changes; as the light chain of Dm5; source: Expi293, transient (pCEP4), purified (Talon resin, gel filtration)) VH: DVQLQESGPSLVKPSQTLSLTCSVTGDSITSDYWSWIRKFPGNRLEYMGYVTFSGSTFYNPSLKSRISITRDTSKNQYYLDLNSVTTEDTATYYCANWDGDYWGQGTLVTVSA VL: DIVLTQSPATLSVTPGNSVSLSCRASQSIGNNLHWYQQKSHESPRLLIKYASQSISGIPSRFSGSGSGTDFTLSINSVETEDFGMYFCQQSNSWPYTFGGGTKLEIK has pKd that meets 9 or exceeds it?
Found: 1 (yes)
